The reported numbers originate from the supplement of paper PMC10065799.

Target: c-Src SH2;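 also: peptide library displayed on the E. coli surface as eCPX fusions, selected cells deep-sequenced, score is each peptide's frequency after selection divided by its frequency in the input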
Experiment: SH2 binding enrichment of the phosphorylated peptide, bacterial display (enrichment ratio); higher = better substrate or ligand; peptides without Tyr show the background
For each record, write down the corresponding SH2 binding enrichment.
Answers are plain numbers.

> print(dat)
                        sequencerecord             testreadout  quantitativereadout
1        EVKAQNEDIAQ [KRT1_Y358_Y358N]  SH2 binding enrichment                0.587
2          QNTGDYFDLFG [PTPN11_Y62_YF]  SH2 binding enrichment                0.409
3             LKSEMYQKLLK [RGS13_Y146]  SH2 binding enrichment                0.544
4   REQREYLEQLN [CCDC88B_Y1277_D1279E]  SH2 binding enrichment                 0.52
5  RELGEYPLAEF [ALDH1A3_Y492_A493P_YF]  SH2 binding enrichment                 2.13
6           IIEDPYFGNDS [ACP1_Y132_YF]  SH2 binding enrichment                0.541

// for each sequence in input: emit SH2 binding enrichment
1. LEAFQYIGESQ [MSH2_Y856_E853A]
2. MKKMHYVDPDR [ST3GAL5_Y99_H104R]

Outgoing:
0.506
0.567

List SH2 binding enrichment for every entry below, keeping the order given.
1. SMEMKYLEEKN [ZAP70_Y451_G448E]
2. SRDTRYLVLAV [AMH_Y195]
3. ISITPYPAILH [IFT80_Y588]
4. GEVLVYVEDPA [FLNA_Y319]
5. DLLMQYPKAQG [FAM83C_Y600]

Outgoing:
[0.549, 0.811, 0.385, 0.45, 0.485]

For each entry beneath this line, provide reported SH2 binding enrichment.
1. KLSFSYGRALQ [ALDOB_Y302]
2. EFENSYIFDIN [GAB1_Y83]
3. KACKHYLTTRT [ZBTB5_Y118]
4. PFAEPYADFGG [APBA1_Y187_S184A_YF]
5. QKTGDYFDLFG [PTPN11_Y62_N58K_YF]
6. CPSLLYSPVSS [CAMKK2_Y128_P127L]
7. ADNSAYLMGLN [MYH7_Y386_K383N]

Outgoing:
0.592
0.581
1.43
0.676
0.583
1.07
0.556
